Provenance of the data: PubChem BioAssay (NCI)

Experiment: NCI Yeast Anticancer Drug Screen. Data for the mlh1 rad18 strain (AID 175)
Details: S. cerevisiae mlh1 rad18 strain growth inhibition; at 50.0 µM (retest, dose inferred, filed as 5.0); hits give high values
About 79,000 compounds went through this panel and 15% of them were active in at least one assay; those are over-represented in the sample as a whole. Where a SMILES comes first, the peptide text is derived from it. The star is where a group is joined. OSu = O=C1CCC(=O)N1O*; OBn = c1ccc(CO*)cc1; Bn = c1ccc(C*)cc1

| compound | growth inhibition / % |
| --- | --- |
| COc1cc(C)cc(C(=O)OCc2ccccc2)c1C1=C(Cl)C(=O)C(Cl)=CC1=O | 4 |
| C/C(=N/NC(=O)Nc1ccc(N=Nc2ccccc2)cc1)c1ccccn1 | 15 |
| CC(O)(CO)CC(C)(O)CO (stereo unspecified) | -11 |
| CN(C)C(=S)/N=c1\ssc(=S)n1C | 6 |
| O=S(=O)(O)C(O)c1ccc2ccc3cccc4ccc1c2c34 (stereo unspecified) | 95 |
| CCCCCC(C)C1=NC(C)(C)CC(C)O1 (stereo unspecified) | -116 |
| CC(=O)Nc1ccc(/C=c2\sc3nnc(-c4cccnc4)n3c2=O)cc1 | 95 |
| C/C(=N\NC(=S)N1CCCC1)c1nc2ncccc2[nH]1 | 97 |
| CS(=O)(=O)OC1C(O)C(n2cnc3c(N)ncnc32)C(O)C(OS(C)(=O)=O)C1OS(C)(=O)=O (stereo unspecified) | -1 |
| O=C1c2ccccc2C(=O)c2c1ccc(C(=O)O)c2-c1ccc2ccccc2c1 | 98 |
| CC(C)CC(NC(=O)C(N)CCC(=O)OCc1ccccc1)C(=O)NC(COCc1ccccc1)C(=O)NC(Cc1ccccc1)C(=O)ON1C(=O)CCC1=O (stereo unspecified) (H-E(OBn)LS(Bn)F-OSu; configuration not given here) | 79 |
| CC(CN(C)C)C(=O)/C=C/c1ccc(C(C)C)cc1 (stereo unspecified) | 94 |
| CCCCC(C)(C)OC(=O)Nc1ccc(Br)cc1 | 96 |
| CC(CN1CCOCC1)(CN1CCOCC1)[N+](=O)[O-] | 99 |
| O=C1C=C(O)c2cc(Br)ccc2C1=O.[Ag] | 99 |
| Cc1ccc(Oc2ccc(C(=O)C(CN(C)C)CN(C)C)cc2)cc1 | 96 |
| O=C(NC[N+]12CCO[B-]1(c1ccc(Br)cc1)OCC2)c1ccccc1O (stereo unspecified) | 72 |
| N#Cc1ccccc1[N+](=O)[O-] | 93 |
| CC1C(O)Oc2cc3c(cc2C1c1ccccc1O)OCO3 (stereo unspecified) | 90 |
| COC1CC(C)(NC(C)=O)C2OC(c3ccccc3)OCC2O1 (stereo unspecified) | -3 |
| CSC(=Nc1ccccc1)NC(=O)Nc1ccc(Cl)cc1 | -5 |

---

Assay: NCI Yeast Anticancer Drug Screen. Data for the rad50 strain (AID 155);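 note: 0% = growth of vehicle-only cultures of the same strain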
Conditions: S. cerevisiae rad50 strain growth inhibition; at 5.0 µM (retest, dose inferred, filed as 0.5); hits give high values
About 79,000 compounds went through this panel and 15% of them were active in at least one assay; those are over-represented in the sample as a whole.
growth inhibition values, listed per item

| smiles-notation | growth inhibition (%) |
| --- | --- |
| Cc1cc2nc3ccc(N(C)C)cc3nc2cc1N | 42 |
| CCCCCCCCCCCC#CCCCCC(=O)O | 87 |
| CN(C)CCN(C)N=Nc1c(-c2cccs2)n[nH]c1C(F)(F)F | 98 |
